Tested on: U251 CNS
Assay: NCI-60 one-dose screen, 48 h (100 = growth as untreated, 0 = no growth, -100 = all killed)
Conditions: 10 µM unless noted
Compounds without any hit were thinned out: in the full panel of roughly 83,000, 20% have a hit.
Classification by growth follows these ranges: A: < 40%; B: ≥ 40% and < 90%; C: ≥ 90%

COMPOUND: CNC(=O)c1c(NC(=O)c2ccc(C(C)C)cc2)sc2c(CN(C)C)c(O)ccc12
ANSWER LABEL: B
--
COMPOUND: CCCC/C(=N\N=C(N)N)c1ccc(F)cc1
ANSWER LABEL: A
--
COMPOUND: NC(=O)c1cccc(-c2ccccc2N2CCCCC2)c1
ANSWER LABEL: C
--
COMPOUND: Cc1nc2sc(C(=O)Nc3ccccc3)c(N)c2cc1C(=O)c1ccc(C(F)(F)F)cc1
ANSWER LABEL: C
--
COMPOUND: CC(N)C(=O)NNc1n[nH]c(=S)n1N (centres undefined)
ANSWER LABEL: C
--
COMPOUND: CC[C@@]12C=CCN3CC[C@]4(c5cc(NC(=O)COc6cc(OCC(=O)Nc7cc8c(cc7OC)N(C)[C@H]7[C@@](O)(C(=O)OC)[C@H](OC(C)=O)[C@]9(CC)C=CCN%10CC[C@]87[C@@H]%109)cc7oc(-c8ccccc8)cc(=O)c67)c(OC)cc5N(C)[C@@H]4[C@](O)(C(=O)OC)[C@H]1OC(C)=O)[C@H]32
ANSWER LABEL: A
--
COMPOUND: C(=N\Nc1ncc(-c2cc3cc4c(cc3o2)OCO4)s1)/c1c[nH]c2ccccc12
ANSWER LABEL: A
--
COMPOUND: O=C1Nc2ccccc2/C1=C\c1cccc(/C=C2/C(=O)Nc3ccccc32)n1
ANSWER LABEL: A
--
COMPOUND: COc1ccccc1-c1c(-c2ccc(Cl)cc2)c2cc3c(cc2[nH]c1=O)OCCO3
ANSWER LABEL: B
--
COMPOUND: O=C(Nc1ccccc1)Oc1ccccc1-c1ccccc1
ANSWER LABEL: C
--
COMPOUND: CCN(CC)CCSCCCNc1c(C)cnc2cc(Cl)ccc12
ANSWER LABEL: B
--
COMPOUND: O=S(=O)(NCCNc1nccc(-c2c(-c3cccc(F)c3)nc3occn23)n1)c1cccc2ccccc12
ANSWER LABEL: B
--
COMPOUND: CCOC(=O)C1=C(C)NC(C)=C(C(=O)OCC)C1c1cc(Br)c(O)c(OC)c1
ANSWER LABEL: A
--
COMPOUND: CC(Oc1ccc(C(=O)NS(=O)(=O)C(C)(C)C)cc1C(F)(F)F)c1ccc(Oc2ccccc2)cn1 (centres undefined)
ANSWER LABEL: B
--
COMPOUND: COc1ccc(/C=C/C(=O)c2ccc(OC)c(OC)c2)cc1O
ANSWER LABEL: A
--
COMPOUND: COc1nccnn1
ANSWER LABEL: C
--
COMPOUND: COc1ccc(-c2nn(Cc3ccccc3)c3c2-c2oncc2CC3)cc1OC
ANSWER LABEL: C
--
COMPOUND: CCN(CC)CCCCCCNc1cc(OC)cc2cccnc12
ANSWER LABEL: A
--
COMPOUND: C/C(=C(/c1ccccc1)c1ccc(OCC(O)CN2CCOCC2)cc1)c1ccccc1 (centres undefined)
ANSWER LABEL: B
--
COMPOUND: CC(=O)N1N=C(c2cccc(Nc3ccncc3)c2)CC1c1ccccc1 (centres undefined)
ANSWER LABEL: B
--
COMPOUND: Fc1ccc(-n2cc(COc3ncnc4sc5c(c34)CCCC5)nn2)cc1Cl
ANSWER LABEL: C
--
COMPOUND: Cc1cn(-c2cc(C(=O)Nc3cccc(C#Cc4cccc5[nH]nc(N)c45)c3)cc(C(F)(F)F)c2)cn1
ANSWER LABEL: B
--
COMPOUND: CCCNC(=O)Oc1ccc(/C(=C(\C)c2ccccc2)c2ccc(OCCN3CCCCC3)cc2)cc1
ANSWER LABEL: B
--
COMPOUND: COc1ccc(Cn2nc3c(c2-c2cc(OC)c(OC)c(OC)c2)-c2oncc2CC3)cc1
ANSWER LABEL: C
--
COMPOUND: Clc1cc(Cl)cc(N2N=C(c3cccc(Nc4ccncc4)c3)CC2c2ccccc2)c1 (centres undefined)
ANSWER LABEL: A
--
COMPOUND: CN1CCN(Cc2ccc(NC(=O)c3cncc(C#Cc4cnccc4C(F)(F)F)c3)cc2C(F)(F)F)CC1
ANSWER LABEL: B
--
COMPOUND: CCCCCCOc1ccc(C(=N)N(CCCC)CCCC)c2ccccc12
ANSWER LABEL: A
--
COMPOUND: COc1ccc(C(=O)c2cc(C)c(OC)c(C)c2)c(OC)c1O
ANSWER LABEL: A
--
COMPOUND: C=C1C(=O)O[C@H]2[C@H]1CC/C(CNC(=O)/C=C/c1ccc(Br)cc1)=C\CC[C@@]1(C)O[C@@H]21
ANSWER LABEL: A

###

Test system: NCI/ADR-RES ovarian
Assay: NCI-60 one-dose screen, 48 h (100 = growth as untreated, 0 = no growth, -100 = all killed)
Settings: 10 µM unless noted
Compounds without any hit were thinned out: in the full panel of roughly 83,000, 20% have a hit.
Entries and their measured growth follow.
REPORTED PROPERTY: growth (%)

COMPOUND: c1ccc(N2N=C(c3cccc(Nc4ccncc4)c3)CC2c2ccc3c(c2)OCO3)cc1 (configuration not stated)
REPORTED PROPERTY: growth
OBSERVED VALUE: -1.79
--
COMPOUND: CCOC(=O)c1c(SC)nn(-c2cc(=O)[nH]c3ccc(Br)cc23)c1N
REPORTED PROPERTY: growth
OBSERVED VALUE: 100
--
COMPOUND: Cc1cccc(C)c1-c1cc(Cc2ccc(Cl)cc2)c(=O)[nH]n1
REPORTED PROPERTY: growth
OBSERVED VALUE: 96.1
--
COMPOUND: Clc1cc(Cl)cc(N2N=C(c3cccc(Nc4ccncc4)c3)CC2c2ccc(Br)cc2)c1 (configuration not stated)
REPORTED PROPERTY: growth
OBSERVED VALUE: 51.2
--
COMPOUND: CN(C)C(C(N)=O)c1ccc(Cl)cc1 (configuration not stated)
REPORTED PROPERTY: growth
OBSERVED VALUE: 106
--
COMPOUND: Clc1ccc2c(c1)c(-c1ccccc1)nc1nncn12
REPORTED PROPERTY: growth
OBSERVED VALUE: 101
--
COMPOUND: CS(=O)(=O)c1ccc(-c2cc(-c3nnc(SCC(=O)Nc4ccc(C(=O)/C=C/c5ccc(Cl)cc5)cc4)n3-c3ccccc3)c3ccccc3n2)cc1
REPORTED PROPERTY: growth
OBSERVED VALUE: 94.6
--
COMPOUND: COc1ccc(NS(=O)(=O)c2ccc(C)cc2)c([N+](=O)[O-])c1
REPORTED PROPERTY: growth
OBSERVED VALUE: 95.9
--
COMPOUND: CC(=O)CCSc1ccc(OC(C)=O)cc1
REPORTED PROPERTY: growth
OBSERVED VALUE: 106
--
COMPOUND: Cc1ccc(C2CC(c3cccc(Nc4ccncc4)c3)=NN2c2ccccc2)cc1 (configuration not stated)
REPORTED PROPERTY: growth
OBSERVED VALUE: -72.8
--
COMPOUND: NC(=O)c1cccc(-c2cc(C(N)=O)ccc2Cl)c1
REPORTED PROPERTY: growth
OBSERVED VALUE: 19
--
COMPOUND: FC(F)(F)c1cccc(Nc2ccccc2)c1
REPORTED PROPERTY: growth
OBSERVED VALUE: 96.2
--
COMPOUND: O=C(CNCCO)Nc1ccc2ncnc(Nc3ccc(OCc4cccc(F)c4)c(Cl)c3)c2c1
REPORTED PROPERTY: growth
OBSERVED VALUE: 90.1
--
COMPOUND: Clc1cc(Cl)cc(N2N=C(c3cccc(Nc4ccncc4)c3)CC2c2ccc3c(c2)OCO3)c1 (configuration not stated)
REPORTED PROPERTY: growth
OBSERVED VALUE: 66.9
--
COMPOUND: COc1ccc(C2CC(c3cccc(Nc4ccncc4)c3)=NN2c2ccccc2)cc1 (configuration not stated)
REPORTED PROPERTY: growth
OBSERVED VALUE: 69.9
--
COMPOUND: O=c1[nH]c2c(s1)CCCC2CN1CCCCC1 (configuration not stated)
REPORTED PROPERTY: growth
OBSERVED VALUE: 99
--
COMPOUND: C=C1C(=O)O[C@H]2[C@H]1CC/C(COC(=O)NCCc1c[nH]c3ccc(Cl)cc13)=C\CC[C@@]1(C)O[C@@H]21
REPORTED PROPERTY: growth
OBSERVED VALUE: 33.9
